System: methicillin-sensitive Staphylococcus aureus (MSSA)
Experiment: MIC, two-fold agar dilution (CLSI), clinical isolates
Assay type: cell-based
Conditions: strain MSSA 14-2
From the text: 1. The invention adopts the two-fold agar dilution method recommended by the operating procedure of antimicrobial susceptibility testing set by American Clinical and Laboratory Standards Institute (CLSI) to determine the Minimum Inhibitory Concentration (MIC) of the test samples against the tested strains.
With a cut-off of 0.5 µg/mL, any MIC (anti-bacterial activity) strictly below it is called True; any MIC (anti-bacterial activity) meeting it or above is called False.

1. CCCC[C@H](CN(O)C=O)C(=O)N1CC2(CC2)C[C@H]1c1nnc(-c2ccccn2)o1	False
2. CCCC[C@H](CN(O)C=O)C(=O)N1CC2(CC2)C[C@H]1C(=O)Nc1cc[nH]n1	False
3. CCCC[C@H](CN(O)C=O)C(=O)N1CC2(CC2)C[C@H]1C(=O)Nc1cc(C(C)(C)C)on1	True

-- ask Strictly below 0.5 µg/mL in MIC (anti-bacterial activity)? CCCC[C@H](CN(O)C=O)C(=O)N1CC2(CC2)C[C@H]1C(=O)Nc1cccc(Nc2ncccn2)c1
-- reply True

-- ask Strictly below 0.5 µg/mL in MIC (anti-bacterial activity)? CCCC[C@H](CN(O)C=O)C(=O)N1CC2(CC2)C[C@H]1C(=O)Nc1ncc(C)s1
-- reply True

-- ask Strictly below 0.5 µg/mL in MIC (anti-bacterial activity)? CCCC[C@H](CN(O)C=O)C(=O)N1CC2(CC2)C[C@H]1C(=O)Nc1ccc(C)c(Nc2nccc(-c3cccnc3)n2)c1
-- reply True

-- ask Strictly below 0.5 µg/mL in MIC (anti-bacterial activity)? CCCC[C@H](CN(O)C=O)C(=O)N1CC2(CC2)C[C@H]1C(=O)Nc1ccc(F)c[n+]1[O-]
-- reply True

-- ask Strictly below 0.5 µg/mL in MIC (anti-bacterial activity)? CCCC[C@H](CN(O)C=O)C(=O)N1CC2(CC2)C[C@H]1c1nc2ccccc2[nH]1
-- reply False

-- ask Strictly below 0.5 µg/mL in MIC (anti-bacterial activity)? CCCC[C@H](CN(O)C=O)C(=O)N1CC2(CC2)C[C@H]1c1nnc2ccccn12
-- reply False

###

test system: methicillin-resistant Staphylococcus epidermidis (MRSE); assay: MIC, two-fold agar dilution (CLSI), clinical isolates; type: cell-based; conditions: strain MRSE 15-7
Attribute: MIC (anti-bacterial activity)
Give the number; µg/mL is assumed, so skip it.

Guide cases for MIC (anti-bacterial activity), answers given:
1. O=CN(O)C[C@@H](CC1CCCC1)C(=O)N1CC2(CC2)C[C@H]1C(=O)Nc1ccno1	1
2. CCCC[C@H](CN(O)C=O)C(=O)N1CC2(CC2)C[C@H]1C(=O)NC1CC1	2
3. CCCC[C@H](CN(O)C=O)C(=O)N1CC2(CC2)C[C@H]1C(=O)Nc1nc(C)cs1	0.125
4. O=CN(O)C[C@@H](CC1CCCC1)C(=O)N1CC2(CC2)C[C@H]1C(=O)NC1CC1	8
5. CC(C)(C)c1cc(NC(=O)[C@@H]2CC3(CC3)CN2C(=O)[C@H](CC2CCCC2)CN(O)C=O)no1	0.25

MIC (anti-bacterial activity) reading for O=CN(O)C[C@@H](CC1CCCC1)C(=O)N1CC2(CC2)C[C@H]1C(=O)Nc1ccc(F)cn1 : 0.5

MIC (anti-bacterial activity) reading for O=CN(O)C[C@@H](CC1CCCC1)C(=O)N1CC2(CC2)C[C@H]1C(=O)Nc1ncco1 : 8

MIC (anti-bacterial activity) reading for O=CN(O)C[C@@H](CC1CCCC1)C(=O)N1CC2(CC2)C[C@H]1C(=O)Nc1ccc(N2CCOCC2)cc1 : 0.25

MIC (anti-bacterial activity) reading for O=CN(O)C[C@@H](CC1CCCC1)C(=O)N1CC2(CC2)C[C@H]1C(=O)Nc1cc[nH]n1 : 2
